- protocol-details: Half life in male Wistar Han rat at 0.5 mg/kg, iv and 3 mg/kg, po measured up to 7 hrs by LC-MS/MS analysis
- Assay type: ADME, organism-based
- condition-info: in vivo
parameter: half-life (h)
Numbers only, in h.

*Q* So what does the record say about half-life for CNC(=O)c1cc(C(=O)N[C@H]2CC[C@H](O)CC2)n([C@@H](C)c2ccccc2)n1 ?
*A* 1.3

* * *

- protocol-details: Solubility of the compound in FaSSIF at pH 6.5 incubated for 16 hrs by HPLC gradient analysis
- Type: physicochemical
- condition-info: FaSSIF, pH 6.5
parameter: solubility at 16 h (µg/mL)
Answers are plain numbers, in µg/mL.

CNC(=O)c1cc(C(=O)N[C@H]2CC[C@H](O)CC2)n([C@@H](C)c2cccc(Cl)c2)n1 : 196
CNC(=O)c1cc(C(=O)N[C@H]2CC[C@H](O)CC2)n([C@@H](C)c2ccc(Cl)cc2)n1 : 102
CNC(=O)c1cc(C(=O)NC2CC2)cn([C@@H](C)c2ccccc2)c1=O : 699
CNC(=O)c1cc(C(=O)N[C@H]2CC[C@H](O)CC2)c([C@@H](C)c2cccc(Cl)c2)o1 : 408
CCC(=O)c1c[nH]c(C(=O)NC)c1 : 13

Then there is this molecule:
*Q* So what does the record say about solubility at 16 h for CNC(=O)c1cc(C(=O)NC2CC2)n(Cc2ccccc2)n1 ?
*A* 285

* * *

- protocol-details: Volume of distribution at steady state in Beagle dog at 0.5 mg/kg, iv and 1 mg/kg, po measured up to 7 hrs by LC-MS/MS analysis
- Type: ADME, organism-based, Canis lupus familiaris
- condition-info: in vivo, read-out: Vdss
parameter: Vd (L/kg)
Numbers only, in L/kg.

These recorded examples may help you get a feel for the data.
CNC(=O)c1cc(C(=O)N[C@H]2CC[C@H](O)CC2)c([C@@H](C)c2cccc(Cl)c2)o1 : 0.9
CNC(=O)c1cc(C(=O)N[C@H]2[C@@H]3COC[C@@H]32)c([C@@H](C)c2ccccc2)o1 : 1.1
CNC(=O)c1cc(C(=O)N[C@H]2CC[C@H](O)CC2)n([C@@H](C)c2ccccc2)n1 : 0.9
CNC(=O)c1cc(C(=O)N[C@H]2[C@@H]3C[C@@H](O)C[C@@H]32)c([C@@H](C)c2ccccc2)o1 : 1.1
CNC(=O)c1cc(C(=O)N[C@H]2CC[C@H](OC)CC2)n([C@@H](C)c2ccccc2)n1 : 2.1

Then there is this compound:
*Q* So what does the record say about Vd for CNC(=O)c1cc(C(=O)N[C@H]2CC[C@H](O)CC2)c([C@@H](C)c2ccccc2)o1 ?
*A* 0.8

* * *

Would you mind telling me the reported chromatographic logD of each entry?
- protocol-details: Distribution coefficient, logD of the compound by chromatography
- Type: physicochemical
- condition-info: octanol/water
Give bare numbers.

These recorded examples may help you get a feel for the data.
CNC(=O)c1cc(C(=O)N[C@H]2[C@@H]3C[C@@H](O)C[C@@H]32)n([C@@H](C)c2cccc(Cl)c2)n1 : 3.4
CCNC(=O)c1cc(C(=O)NC)oc1[C@@H](C)c1ccccc1 : 3.5
CNC(=O)c1cc(C(=O)N[C@H]2CC[C@H](O)CC2)c([C@@H](C)c2ccccc2)o1 : 2.8
CC[C@@H](c1ccccc1)n1nc(C(=O)NC)cc1C(=O)N[C@H]1[C@@H]2C[C@H](O)C[C@@H]21 : 3.6
CNC(=O)c1cc(C(=O)N[C@H]2[C@@H]3COC[C@@H]32)cc2c1O[C@H](CF)[C@H]2c1ccccc1 [GSK973] : 3.6
CNC(=O)c1cc(C(=O)N[C@H]2CC[C@H](OC)CC2)n([C@@H](C)c2ccccc2)n1 : 4.2
CNC(=O)c1cc(C(=O)NCCO)c([C@@H](C)c2ccccc2)o1 : 2.3

*Q* So what does the record say about chromatographic logD for CNC(=O)c1cc(C(=O)N[C@H]2[C@@H]3C[C@@H](O)C[C@@H]32)c([C@@H](C)c2ccccc2)o1 ?
*A* 2.8

* * *

- protocol-details: Intrinsic clearance in human hepatocytes measured per gram of tissue incubated for 120 mins by LC-MS/MS method
- Assay type: ADME, cell-based, Hepatocyte
- condition-info: 2 h
parameter: CLint (mL/min/g)
Numbers only, in mL/min/g.

CNC(=O)c1cc(C(=O)NC2CC2)cn(Cc2cccc3[nH]ccc23)c1=O : 2.9

Then there is this compound:
*Q* So what does the record say about CLint for CCNC(=O)c1cc2c(-c3cc(C(C)(C)O)ccc3Oc3c(C)cc(F)cc3C)cn(C)c(=O)c2[nH]1 ?
*A* 5.1

* * *

- protocol-details: Permeability of compound by AMP assay
- Assay type: ADME
- condition-info: not told; read-out: permeability
Would you mind telling me the reported Papp of each entry?
Answers are plain numbers, in ×10⁻⁶ cm/s.

CC[C@@H](c1ccccc1)n1nc(C(=O)NC)cc1C(=O)N[C@H]1[C@@H]2C[C@H](O)C[C@@H]21 : 23
CNC(=O)c1cc(C(=O)NCCO)n([C@@H](C)c2ccccc2)n1 : 5.9
CNC(=O)c1cc(C(=O)N[C@H]2CC[C@H](O)CC2)n([C@@H](C)c2cccc(C(F)(F)F)c2)n1 : 28
CNC(=O)c1cc(C(=O)N[C@H]2CC[C@H](O)CC2)c([C@@H](C)c2cccc(OC)c2)o1 : 4.4
CCCNC(=O)c1cc(C(=O)NC)oc1[C@@H](C)c1ccccc1 : 48

Quick request: Papp for each listed item, please.
1. CCCNC(=O)c1cc(C(=O)NC)nn1[C@@H](C)c1ccccc1
2. CCNC(=O)c1cc(C(=O)NC)nn1[C@@H](C)c1ccccc1

*A*
56
43.5

* * *

- protocol-details: Solubility of the compound by CLND assay
- Type: physicochemical
parameter: solubility kinetic

These recorded examples may help you get a feel for the data.
CCCNC(=O)c1cc(C(=O)NC)oc1[C@@H](C)c1ccccc1 : ≥ 127 µg/mL
CNC(=O)c1cc(C(=O)N[C@H]2CC[C@H](OC)CC2)c([C@@H](C)c2ccccc2)o1 : ≥ 192 µg/mL
CNC(=O)c1cc(C(=O)N[C@H]2CC[C@H](O)CC2)c([C@@H](C)c2ccccc2)o1 : ≥ 184 µg/mL
CNC(=O)c1cc(C(=O)N[C@H]2CC[C@H](O)CC2)n([C@@H](C)c2ccccc2)n1 : ≥ 180 µg/mL
CNC(=O)c1cc(C(=O)NC2CC2)n([C@@H](C)c2ccccc2)n1 : ≥ 165 µg/mL
CNC(=O)c1cc(C(=O)NC2CC2)c([C@@H](C)c2ccccc2)o1 : ≥ 145 µg/mL

Quick request: solubility kinetic for each listed item, please.
1. CNC(=O)c1cc(C(=O)NC(C)CO)n([C@@H](C)c2ccccc2)n1 (stereo partly drawn)
2. CNC(=O)c1cc(C(=O)N[C@H]2[C@@H]3C[C@@H](OC)C[C@@H]32)n([C@@H](C)c2ccccc2)n1
3. CNC(=O)c1cc(C(=O)NC2CCOCC2)n([C@@H](C)c2ccccc2)n1

*A*
1: ≥ 132 µg/mL; 2: ≥ 150 µg/mL; 3: 31 µg/mL

* * *

Would you mind telling me the reported solubility at 16 h of each entry?
- protocol-details: Solubility of the compound in FaSSIF at pH 6.5 incubated for 16 hrs by HPLC gradient analysis
- Format: physicochemical
- condition-info: FaSSIF, pH 6.5

These recorded examples may help you get a feel for the data.
CNC(=O)c1cc(C(=O)N[C@H]2CC[C@H](O)CC2)c([C@@H](C)c2cccc(C)c2)o1 : > 1000 µg/mL
CC[C@@H](c1ccccc1)n1nc(C(=O)NC)cc1C(=O)N[C@H]1CC[C@H](O)CC1 : > 1000 µg/mL

Then there is this compound:
*Q* So what does the record say about solubility at 16 h for CNC(=O)c1cc(C(=O)N[C@H]2CC[C@H](O)CC2)c([C@@H](C)c2ccccc2Cl)o1 ?
*A* > 1000 µg/mL

* * *

- protocol-details: Solubility of the compound by CLND assay
- Assay type: physicochemical
parameter: solubility kinetic

These recorded examples may help you get a feel for the data.
CNC(=O)c1cc(C(=O)N[C@H]2[C@@H]3C[C@@H](O)C[C@@H]32)n([C@@H](C)c2ccccc2)n1 : ≥ 291 µg/mL
CNC(=O)c1cc(C(=O)NC(C)CO)c([C@@H](C)c2ccccc2)o1 (some centres undefined) : ≥ 121 µg/mL

Quick request: solubility kinetic for each listed item, please.
1. CNC(=O)c1cc(C(=O)N[C@H]2[C@@H]3COC[C@@H]32)c([C@@H](C)c2ccccc2)o1
2. CCNC(=O)c1cc(C(=O)NC)oc1[C@@H](C)c1ccccc1

*A*
["≥ 131 µg/mL", "≥ 148 µg/mL"]

Origin of values: ChEMBL document CHEMBL4834464
